# STUDY_TARGET: CXCR7 (Homo sapiens)
# Sequence (P25106 whole entry): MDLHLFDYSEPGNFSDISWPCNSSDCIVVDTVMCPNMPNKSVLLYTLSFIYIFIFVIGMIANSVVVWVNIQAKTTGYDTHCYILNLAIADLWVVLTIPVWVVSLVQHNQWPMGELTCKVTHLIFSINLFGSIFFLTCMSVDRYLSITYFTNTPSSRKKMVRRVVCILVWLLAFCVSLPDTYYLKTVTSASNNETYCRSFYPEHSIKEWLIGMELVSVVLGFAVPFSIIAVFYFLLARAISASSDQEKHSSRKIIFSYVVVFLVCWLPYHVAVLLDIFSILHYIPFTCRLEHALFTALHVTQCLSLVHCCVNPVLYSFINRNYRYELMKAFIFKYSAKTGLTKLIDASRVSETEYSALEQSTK
# PROCEDURE_DETAILS: CXCR7 β-arrestin recruitment assay in CHO-CXCR7 cells (ProLink/EA β-galactosidase complementation), induced by human SDF-1a
# STUDY_CONDITIONS: assay buffer, SDF-1a at EC50 concentration
pIC50: −log10 of the molar value.
The entries below are paired with their reported pIC50.

Solved entries:
MOLECULE	pIC50
CC(C)CN1CC(CC(=O)NC(C)(C)c2cc(Cl)cc(Cl)c2)(NC(=O)c2cc(-c3ccc(F)cc3F)on2)C1	7.00 to 8.30
COc1cccc(C(C)(C)NC(=O)CC2(NC(=O)c3cc(-c4ccc(F)cc4F)on3)CN([C@H]3CC[C@@](C)(O)CC3)C2)c1	7.00 to 8.30
Cn1cc(C(C)(C)NC(=O)CC2(NC(=O)c3cc(-c4ccc(F)cc4F)on3)CN(C3CCCCC3)C2)cn1	7.00 to 8.30

Lookup: pIC50 / CXCR7 (Homo sapiens) / "CC(C)(NC(=O)CC1(NC(=O)c2cc(-c3ccc(F)cc3F)on2)CN([C@H]2CC[C@@](C)(O)CC2)C1)c1ccc(F)cc1F" 7.00 to 8.30

Do the same for "Cc1cc(Cl)cc(C(C)(C)NC(=O)CC2(NC(=O)c3cc(-c4ccc(F)cc4F)on3)CN([C@H]3CC[C@](C)(O)CC3)C2)n1" please > 8.30

Do the same for "C[C@]1(O)CC[C@H](N2CC(CC(=O)NCc3c[nH]c4ccccc34)(NC(=O)c3cc(-c4ccc(F)cc4F)on3)C2)CC1" please 7.00 to 8.30

Do the same for "Cc1ccc(F)c(C(C)(C)NC(=O)CC2(NC(=O)c3cc(-c4ccc(F)cc4F)on3)CN([C@H]3CC[C@@](C)(O)CC3)C2)c1" please > 8.30

Do the same for "COc1cc(C)nc(C(C)(C)NC(=O)CC2(NC(=O)c3cc(-c4ccc(F)cc4F)on3)CN([C@H]3CC[C@@](C)(O)CC3)C2)n1" please > 8.30

Do the same for "CC(C)(NC(=O)CC1(NC(=O)c2cc(-c3ccc(F)cc3F)on2)CN(c2ccccn2)C1)c1ccccn1" please 4.70 to 6.00

Do the same for "CC(C)(O)CN1CC(CC(=O)NC(C)(C)c2ncccn2)(NC(=O)c2cc(-c3ccc(F)cc3F)on2)C1" please 6.00 to 7.00

Do the same for "Cc1ccc(C(C)(C)NC(=O)CC2(NC(=O)c3cc(-c4ccc(F)cc4F)on3)CN([C@H]3CC[C@](C)(O)CC3)C2)cc1" please 6.00 to 7.00

Do the same for "CC(C)(NC(=O)CC1(NC(=O)c2cc(-c3ccc(F)cc3F)on2)CN(CC2CCOCC2)C1)c1ccccn1" please 6.00 to 7.00

Do the same for "Cc1cccc(C(C)(C)NC(=O)CC2(NC(=O)c3nnc(-c4ccc(F)cc4F)s3)CN([C@H]3CC[C@](C)(O)CC3)C2)n1" please > 8.30

Do the same for CC(C)(NC(=O)CC1(NC(=O)c2cc(-c3ccc(F)cc3F)on2)CN([C@H]2CC[C@@](C)(O)CC2)C1)c1ccccn1 [Example 1.034] please 6.00 to 7.00
